Hello, the source for this data is PubChem BioAssay (NCI), in case you need it.

Tested on: HCT-15 colon
Experiment: NCI tumour cell line growth inhibition, 48 h
TGI below 5 µM gives not satisfied; TGI at or above it gives satisfied.

[[record]]
compound = "Cc1ccc(S(=O)(=O)N/N=C2/C3CCC(C3)C2c2ccccc2)cc1 (centres undefined)"
label_class = "satisfied"


**Q:** # bool: TGI of CN(C)CCNC(=O)c1cccc2nc3c(ccc4ccccc43)nc12 >= 5 µM
**A:** not satisfied

**Q:** # bool: TGI of CCOC(=O)[C@]12C3C=CC(C3)C1C(=O)C1OC12 (some centres undefined) >= 5 µM
**A:** satisfied

**Q:** # bool: TGI of Cc1ccc(N(CC(=O)Nc2ccc(S(=O)(=O)NC3CCN(C)CC3)cc2)S(=O)(=O)c2ccc(Cl)cc2)cc1 >= 5 µM
**A:** satisfied

**Q:** # bool: TGI of OCc1cc2c([nH]c3ccccc32)c(C(O)CO)n1 (centres undefined) >= 5 µM
**A:** satisfied

**Q:** # bool: TGI of O=C1C(Cl)=C(Cl)C(Cl)(Cl)C(Cl)C1(Cl)Cl (centres undefined) >= 5 µM
**A:** satisfied

**Q:** # bool: TGI of CN(C)c1nc2nonc2nc1Nc1ccccc1 >= 5 µM
**A:** satisfied

**Q:** # bool: TGI of COc1cc(C2CC(c3ccc(SC)cc3)=NN2C(C)=O)cc(OC)c1OC (centres undefined) >= 5 µM
**A:** satisfied

**Q:** # bool: TGI of COc1ccc(/C=C/C(=O)c2c(O)c(C)c(O)c3c2OC2=CC(O)=C(C(C)=O)C(=O)[C@]23C)cc1 >= 5 µM
**A:** not satisfied

**Q:** # bool: TGI of [O-][n+]1c(-c2ccccc2)oc2ccccc21 >= 5 µM
**A:** satisfied

**Q:** # bool: TGI of COC1=C(C)C(=O)N2[C@@H]1[C@H](c1ccccc1)OC21C=CC(=O)C=C1 >= 5 µM
**A:** not satisfied

**Q:** # bool: TGI of COc1cc2c(cc1OCCCCCN1C(=O)c3cccc4cccc(c34)C1=O)N=C[C@@H]1CCCN1C2=O >= 5 µM
**A:** not satisfied

**Q:** # bool: TGI of FC(F)(F)c1ccc2c(c1)nc(-c1ccccc1)n2CC1CCCN2CCCCC12 (centres undefined) >= 5 µM
**A:** satisfied

**Q:** # bool: TGI of Cc1cc(=O)[nH]c(-n2[nH]c3c(c2=O)CCCC3)n1 >= 5 µM
**A:** satisfied

**Q:** # bool: TGI of COC(=O)[C@]1(C)CC[C@]2(C)CC[C@]3(C)C4[C@H]5Oc6c(cc7c(c6C)CCC6[C@@]7(C)CC[C@@]7(C)C8[C@](C)(CCC[C@@]8(C)C(=O)OC)CC[C@]67C)O[C@H]5c5c(cc6c(c5C)O[C@@]5(C)C7=CC=C8[C@@](C)(CC[C@@]9(C)[C@@H]%10C[C@](C)(C(=O)OC)CC[C@]%10(C)CC[C@]89C)C7=CC(=O)[C@@]5(O)O6)[C@]4(C)CC[C@@]3(C)C2C1 (some centres undefined) >= 5 µM
**A:** satisfied

**Q:** # bool: TGI of COc1ccccc1-c1cc(=O)c2c(C)cc(C)nc2[nH]1 >= 5 µM
**A:** satisfied

**Q:** # bool: TGI of COc1ccccc1/C=C/C(=O)c1ccc(Nc2nc(Nc3ccc(F)cc3)nc(Nc3ccc(F)cc3)n2)cc1 >= 5 µM
**A:** satisfied

**Q:** # bool: TGI of NC(N)=Nc1ccc(CC(N)C(=O)NCC(=O)C(CC(=O)O)c2ncc(NC(=O)C(F)(F)F)o2)cc1 (centres undefined) >= 5 µM
**A:** satisfied

**Q:** # bool: TGI of COC(=O)CCCC(=O)C1=Nc2ccccc2CN(c2ccc(Cl)cc2)N1 >= 5 µM
**A:** satisfied

**Q:** # bool: TGI of COc1ccc(Cc2nccc3cc(OC)c(OC)cc23)cc1 >= 5 µM
**A:** satisfied

**Q:** # bool: TGI of COc1cc(C(=O)/C=C/c2c(-c3cccs3)nc3sccn23)cc(OC)c1OC >= 5 µM
**A:** not satisfied

**Q:** # bool: TGI of COc1cc(Nc2ncc3c(C)nc(-c4cccc(C(F)(F)F)c4)n3n2)cc(OC)c1OC >= 5 µM
**A:** satisfied

* * *

System: SNB-75 CNS
Assay: NCI tumour cell line growth inhibition, 48 h
Experimental readout: TGI

Solved entries (count: 10):
[[record]]
compound = "CCCCCCCCCCCCCCCCOCC(Cl)CP(=O)(O)OP(=O)(O)OCC1OC(n2cnc3c(N)ncnc32)C(O)C1O (stereo not drawn)"
experimental_readout = "TGI"
result = "> 100 µM"

[[record]]
compound = "O=C(Nc1ccn(C2CCC(CO)O2)c(=O)n1)c1ccccc1 (stereo not drawn)"
experimental_readout = "TGI"
result = "> 100 µM"

[[record]]
compound = "Cc1cccc(/C=N/NC(=S)Nc2ccc(Cl)cc2)n1"
experimental_readout = "TGI"
result = "16.1 µM"

[[record]]
compound = "CC[C@@]1(O)C(=O)OCc2c1cc1n(c2=O)Cc2c-1nc1ccccc1c2/C=N/NC(=O)C[N+](C)(C)C"
experimental_readout = "TGI"
result = "9.74 µM"

[[record]]
compound = "CN(C)C1C(CO)OC(n2cnc3c(N)ncnc32)C1O (stereo not drawn)"
experimental_readout = "TGI"
result = "> 100 µM"

[[record]]
compound = "C1C[OH+]CCNCC[OH+]CC[OH+]CCN1.O.[Cl-].[Pt+4]"
experimental_readout = "TGI"
result = "> 100 µM"

[[record]]
compound = "COc1ccc(NC2C(=O)C3(C)CCC2C3(C)C)cc1 (stereo not drawn)"
experimental_readout = "TGI"
result = "> 100 µM"

[[record]]
compound = "Nc1ccc(Sc2nnc(N)s2)cc1"
experimental_readout = "TGI"
result = "> 100 µM"

[[record]]
compound = "CC(=O)Nc1cccc2[nH]c3ccccc3c(=O)c12"
experimental_readout = "TGI"
result = "65.9 µM"

[[record]]
compound = "O=C(O)[C@@H](NS(=O)(=O)c1ccc(F)cc1)c1ccccc1"
experimental_readout = "TGI"
result = "> 100 µM"


**Q:** For CCc1cccc(C(C)CC)c1NC(=O)CC1C(=O)Nc2ccccc2S1(=O)=O (stereo not drawn) , what is its reported TGI?
**A:** 94.6 µM

**Q:** For Nc1cnc(Nc2cccc3ccccc23)o1 , what is its reported TGI?
**A:** > 10 µM

* * *

System: UACC-257 melanoma
Experiment: NCI tumour cell line growth inhibition, 48 h
Experimental readout: TGI

Solved entries (count: 2):
[[record]]
compound = "C#CCn1c(=O)[nH]c(=O)c2cccnc21"
experimental_readout = "TGI"
result = "> 100 µM"

[[record]]
compound = "Cn1c(C2CCCc3c2c2ccccc2n3C)cc2ccccc21 (configuration not stated)"
experimental_readout = "TGI"
result = "> 318 µM"


**Q:** For O=C1c2cccc3cc4ccccc4c(c23)C(=O)N1CCNCCN1C(=O)c2cccc3cc4ccccc4c(c23)C1=O , what is its reported TGI?
**A:** 2.74 µM

**Q:** For CN1CCN(CCCNN)CC1 , what is its reported TGI?
**A:** > 100 µM

**Q:** For COc1cc(/C=C/[N+](=O)[O-])c([N+](=O)[O-])cc1OC , what is its reported TGI?
**A:** 11.9 µM

**Q:** For CN1N(c2ccccc2)C(=O)C2=NC=C(C(=O)c3ccccc3)C(=N)C21C (configuration not stated) , what is its reported TGI?
**A:** > 100 µM

**Q:** For FC(F)(F)c1ccc2c(c1)nc(-c1ccccc1)n2CC1CCCN2CCCCC12 (configuration not stated) , what is its reported TGI?
**A:** 31.8 µM

* * *

Tested on: DU-145 prostate
Test: NCI tumour cell line growth inhibition, 48 h; in the data active = GI50 below about 0.43 µM; inactive = the rest
Entry note: the call must match one of T = active, F = inactive

[[record]]
compound = "CN(C)CCCNc1nc2ccccc2c2c(=O)c3cc(F)ccc3sc12"
label_class = "F"

[[record]]
compound = "CO[C@H]1/C=C/[C@@](C)(O)/C=C/C(=O)O[C@H](C)[C@@H](C)CC/C=C/1C"
label_class = "F"

[[record]]
compound = "O=C(c1ccc(Oc2ccccc2)cc1Cl)c1c[nH]c2ncnc(N[C@@H]3CC[C@@H](CO)OC3)c12"
label_class = "F"

[[record]]
compound = "CC(c1ccccc1)N1C(=O)CSC1=S (stereo not given)"
label_class = "T"

[[record]]
compound = "NCCCNc1nc2ccccc2c2c(=O)c3cccc(F)c3sc12"
label_class = "F"

[[record]]
compound = "CN(C)CCNc1c2c(c(NCCN(C)C)c3c(CN(C)C)c[nH]c13)C(=O)c1ccccc1C2=O"
label_class = "F"

[[record]]
compound = "Cc1ccc(N(CC(=O)Nc2ccc(S(=O)(=O)NC3CCN(C)CC3)cc2)S(=O)(=O)c2ccc(Cl)cc2)cc1"
label_class = "F"

[[record]]
compound = "CCCCN1C=CCN(CCCC)C1"
label_class = "F"


**Q:** Answer briefly: the call reported for COc1ccc(-c2cc(C(=O)N3N=C(c4ccc(N)cc4)CC3c3ccc(Cl)cc3)c3ccccc3n2)cc1 (stereo not given) in this assay.
**A:** F

**Q:** Answer briefly: the call reported for CN(c1ccc(Cl)c(Cl)c1)c1cnc2cc(N)cc(N)c2n1 in this assay.
**A:** F
